Dear all, I have gathered published pIC50 values for human PDE10A2 (Homo sapiens (Human)); the list follows.
pIC50: −log10 of the molar value.
attribute.measured: pIC50

Consider the worked cases shown below.
molecule=Cc1cnc(C)n2nc(CCc3nc(N4CCC[C@@H]4C(F)(F)F)nn3C)nc12 system_name="human PDE10A2 (Homo sapiens (Human))" attribute_measured=pIC50 value_reported=7.56
molecule=Cc1ccc(C)n2nc(CCc3cn(C)c(-c4ccco4)n3)nc12 system_name="human PDE10A2 (Homo sapiens (Human))" attribute_measured=pIC50 value_reported=9.12
molecule=CCNC(=O)c1cnn(C)c1C(=O)Nc1ccn2cc(-c3ccccc3)nc2n1 system_name="human PDE10A2 (Homo sapiens (Human))" attribute_measured=pIC50 value_reported=7.61

a = Cc1nc2c(OC(C)C)cc(C#Cc3nc(N4CCCC4)nn3C)nn2c1C
b = Cn1c(N[C@H]2C[C@H](N3C(=O)C(C)(C)c4nccnc43)C2)nc2ccccc21
c = Cn1ncc(C(=O)NC(C)(C)C)c1C(=O)Nc1ccn2cc(-c3ccccc3)nc2n1
d = Cc1ccc2nc(C)c3nnc(-c4cc(C(C)O)ccc4Cl)n3c2n1 (stereo not drawn)
**Q:** Put these in order: smallest pIC50 first, largest last. Kindly provide the labels arranged according to the requested ordering.
**A:** d, c, b, a
(d: 5.77, c: 6.88, b: 8.56, a: 9.00)

----------
Dear all, I have gathered published IC50 values for human PDE10A2 (Homo sapiens (Human), UniProt Q9Y233); the list follows.

Consider the worked cases shown below.
compound=Cc1cscc1-c1cccc2c1C(=O)N(CCc1ccc3ccccc3n1)C2 attribute_measured=IC50 value_reported="200 to 500 nM"
compound="Cc1cnc2c(C(=O)NC3(c4ccc(C(F)(F)F)cc4F)CCOC3)cnn2c1 (racemic)" attribute_measured=IC50 value_reported="> 10000 nM"
compound=O=C1c2c(-c3ccnnc3)ccnc2CN1CCc1ccc2ccccc2n1 attribute_measured=IC50 value_reported="< 100 nM"

**Q:** GET /values?readout=IC50&item= "O=C1c2c(cccc2-c2ccncc2F)CN1CCc1ccc2ccccc2n1"
**A:** < 100 nM

**Q:** Another compound to look at: "O=C1c2cccc(-c3cc[nH]n3)c2CN1CCc1nc2ccccc2s1"
**A:** < 100 nM

**Q:** Another compound to look at: Cc1nsc(-c2cnn(C)c2C(=O)NC2CCn3nc(-c4ccccc4)nc3C2)n1 (stereo not shown)
**A:** 5 to 100 nM

----------
pIC50: −log10 of the molar value.
Dear all, I have gathered published pIC50 values for human PDE10A2 (Homo sapiens (Human)); the list follows.
attribute.measured: pIC50

Consider the worked cases shown below.
smiles_entry=Cc1nc2cc(C(C)C)c(C#Cc3nc(N4CCCC4)nn3C)nn2c1C system_name="human PDE10A2 (Homo sapiens (Human))" value_reported=8.59
smiles_entry=Cn1ncc(C(=O)NCc2ccc(C#N)nc2)c1C(=O)Nc1ccn2cc(-c3ccccc3)nc2n1 system_name="human PDE10A2 (Homo sapiens (Human))" value_reported=6.82

I = O=C(Nc1cc(-c2ccc(Br)cc2)no1)c1nc(C2CC2)ccc1Nc1cncnc1
II = O=C(Nc1cnccc1C(=O)N1CC(O)C1)c1nc(C2CC2)ccc1Nc1cncnc1
**Q:** Hi, I'm comparing I with II and wondering which one has the bigger number for pIC50. Any idea? When you have decided, please share the label of that item.
**A:** II

P = Cc1ncc(C)n2nc(CCc3nc(N4CC[C@H](F)C4)nn3C)nc12
Q = CCc1ccc(Nc2cncnc2)c(C(=O)Nc2cc(-c3ccccn3)nn2C)n1
R = Cc1c(Cl)cc(C(F)(F)F)c2nc(CCc3nc(N4CCCC4)nn3C3CC3)nn12
S = Cc1nc2cccnc2n2c(-c3cc(OC4CCC(F)(F)CC4)ccc3Cl)nnc12
T = Cc1cnc(C)n2nc(CCc3nc(N4CCCC4=O)cn3CC(F)F)nc12
**Q:** Returns the items ordered by pIC50, from maximum to minimum. Kindly provide the labels arranged according to the requested ordering.
**A:** R, Q, T, P, S
(R: 9.14, Q: 8.70, T: 7.57, P: 6.91, S: 5.15)

----------
Dear all, I have gathered published IC50 values for human PDE10A2 (Homo sapiens (Human), UniProt Q9Y233); the list follows.

**Q:** API: value(readout=IC50, system=human PDE10A2 (Homo sapiens (Human), UniProt Q9Y233)) for record "O=C1c2c(-c3cccnc3)ccnc2CN1CCc1ccc2ccccc2n1"
**A:** < 0.1 µM

**Q:** Another compound to look at: "O=C1c2c(cccc2-c2ccc(F)c(F)c2)CN1CCc1ccc2ccccc2n1"
**A:** 0.2 to 0.5 µM

**Q:** Another compound to look at: "Cn1ncc(-c2nc(C(F)(F)F)cs2)c1C(=O)Nc1ccn2cc(-c3ccccc3)nc2c1"
**A:** < 0.005 µM

**Q:** Another compound to look at: "Cn1c(=O)n([C@H]2C[C@H](Nc3nc4ccc(F)cc4s3)C2)c2ncccc21"
**A:** 0.000255 µM

----------
pIC50: −log10 of the molar value.
Dear all, I have gathered published pIC50 values for human PDE10A2 (Homo sapiens (Human)); the list follows.
attribute.measured: pIC50

smiles_entry=CNC(=O)c1nn(C)cc1NC(=O)c1nc(C2CCCCC2)ncc1Nc1cncnc1 attribute_measured=pIC50 value_reported=8.72

I = Cc1ccc2nc(C)c3nnc(-c4cc(C5(O)CCC5)ccc4Cl)n3c2n1
II = COc1ccc(-c2nnc(NC(=O)c3nc(C4CC4)ccc3Nc3cncnc3)s2)cc1
III = O=C1Cc2cccnc2N1[C@H]1C[C@H](Nc2nc3ccccc3s2)C1
IV = COc1cccn2nc(/C=C/c3nc(-c4cscc4C)cn3C)nc12
V = O=C(Nc1ccn2cc(-c3ccccc3)nc2n1)c1cccc(Cl)n1
**Q:** Put these in order: smallest pIC50 first, largest last. Kindly provide the labels arranged according to the requested ordering.
**A:** II, V, I, IV, III
(II: 5.73, V: 6.50, I: 6.73, IV: 7.26, III: 8.61)

1 = Cc1ncc(C)n2nc(/C=C/c3ccc4cc(F)ccc4n3)nc12
2 = O=C(Nc1cc(-c2ccc(Cl)cn2)nn1CCO)c1nc(C2CC2)ccc1Nc1cncnc1
**Q:** Hi, I'm comparing 1 with 2 and wondering which one has the bigger number for pIC50. Any idea? When you have decided, please share the label of that item.
**A:** 2
(2: 8.70, 1: 6.72)

----------
Dear all, I have gathered published IC50 values for human PDE10A2 (Homo sapiens (Human)); the list follows.

Consider the worked cases shown below.
compound=CNC(=O)c1c(NC(=O)c2nc(OCC(F)(F)F)cnc2Nc2cncnc2)cnn1C value_reported="49.3 nM"
compound="Cc1nnc(-c2cnn(C)c2C(=O)NC2CCn3cc(-c4cc(F)ccc4F)nc3C2)s1 (stereo not drawn)" value_reported="5 to 100 nM"
compound="COc1cc2ncnc(N3CCNC(c4ccccc4OC)C3)c2cc1OC (stereo not drawn)" value_reported="110 nM"

**Q:** API: value(readout=IC50, system=human PDE10A2 (Homo sapiens (Human))) for record "Cn1nccc1-c1ccc(F)c2c1C(=O)N(CCc1cn3ccccc3n1)C2"
**A:** < 100 nM

**Q:** Another compound to look at: Cn1ncc(-c2nc(C(F)(F)F)cs2)c1C(=O)NC1CCn2nc(N3CCCC3)nc2C1 (stereo not drawn)
**A:** < 5 nM

**Q:** Another compound to look at: "O=C1c2c(cccc2N2CCNCC2)CN1CCc1ccc2ccccc2n1"
**A:** 200 to 500 nM

**Q:** Another compound to look at: "Cc1cccc(-c2cnn(C)c2C(=O)Nc2ccn3nc(N4CC[C@H](F)C4)nc3c2)n1"
**A:** < 5 nM

**Q:** Another compound to look at: COc1cn(-c2cnn(C(C)C3CC3)c2)nc(-c2ccnn2-c2ccccc2)c1=O (single isomer, unassigned)
**A:** ≤ 10 nM

**Q:** Another compound to look at: "Cc1cnc2c(C(=O)NC3(c4ccc(C(F)(F)F)cc4F)CCOCC3)cnn2c1"
**A:** > 10000 nM

----------
Dear all, I have gathered published pIC50 values for human PDE10A2 (Homo sapiens (Human), UniProt Q9Y233); the list follows.
pIC50: −log10 of the molar value.
attribute.measured: pIC50

A = Cn1cc(-c2ccncc2)c(-c2ccc(OCc3cn4ccsc4n3)cc2)n1
B = CCc1ccc(C)n2nc(CCc3nc(-c4ccccc4)nn3C(C)C)nc12
C = Cn1ncc(C(=O)NCC(C)(C)O)c1C(=O)Nc1ccn2cc(-c3ccccc3)nc2n1
**Q:** Lab note: order the above by reported pIC50, lowest first, highest last. Kindly provide the labels arranged according to the requested ordering.
**A:** C, B, A
(C: 6.33, B: 7.40, A: 7.92)

----------
Dear all, I have gathered published IC50 values for UniProt:Q9Y233; the list follows.
attribute.measured: IC50 (µM)

Consider the worked cases shown below.
molecule=Cn1ncc(C(=O)NCc2cn3ccsc3n2)c1C(=O)Nc1ccn2cc(-c3ccccc3)nc2n1 system_name=UniProt:Q9Y233 attribute_measured=IC50 value_reported=0.305
molecule="COCC(O)Cn1cc(-c2cccs2)nc1CCc1nc2cccc(C)n2n1 (stereo not shown)" system_name=UniProt:Q9Y233 attribute_measured=IC50 value_reported=0.0075
molecule=CC(C)Cc1ncc(Nc2cncnc2)c(C(=O)Nc2cccnc2C(=O)NCC(C)(C)O)n1 system_name=UniProt:Q9Y233 attribute_measured=IC50 value_reported=0.0031

P = Cc1cnc(C)n2nc(CCc3nc(-c4ccccc4)nn3C)nc12
Q = CCNC(=O)c1ncccc1NC(=O)c1nc(C2CC2)cnc1Nc1cncnc1
**Q:** Hi, I'm comparing P with Q and wondering which one has the bigger number for IC50. Any idea? When you have decided, please share the label of that item.
**A:** P
